Every entry's value here was drawn from paper PMC8392861.

molecular target: SOS1 catalytic domain (SOS-CAT) with NRAS (Homo sapiens); construct: SOS1 catalytic domain 564-1049 in pET15 plus full-length wild-type NRAS in pHTP1; bacterial expression, Ni-NTA purified; with GTPase NRas; test: fluorescent BODIPY-FL-GDP nucleotide exchange (GEF) assay, initial rate; type: biochemical; conditions: GTP, BODIPY-FL-GDP-loaded RAS, 1 mM MgCl2, 0.01% NP40, 1 mM DTT, pH 7.5; initial 200 s
Sequence (Q07889 564-1049): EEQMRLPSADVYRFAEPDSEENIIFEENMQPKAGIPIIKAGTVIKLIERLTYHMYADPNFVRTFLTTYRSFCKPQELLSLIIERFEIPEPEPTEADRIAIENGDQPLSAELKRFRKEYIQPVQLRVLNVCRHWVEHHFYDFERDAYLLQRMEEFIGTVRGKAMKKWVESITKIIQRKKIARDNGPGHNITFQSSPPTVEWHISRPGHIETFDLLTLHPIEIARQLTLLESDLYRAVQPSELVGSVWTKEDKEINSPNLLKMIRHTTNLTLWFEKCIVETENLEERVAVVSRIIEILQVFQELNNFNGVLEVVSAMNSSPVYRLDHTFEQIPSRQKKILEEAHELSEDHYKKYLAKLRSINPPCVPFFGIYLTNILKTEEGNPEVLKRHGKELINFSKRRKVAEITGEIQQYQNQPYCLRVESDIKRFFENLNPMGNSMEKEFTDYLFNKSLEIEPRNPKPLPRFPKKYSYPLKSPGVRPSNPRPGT
Sequence (P01111 whole entry partner, the tested form may be a part): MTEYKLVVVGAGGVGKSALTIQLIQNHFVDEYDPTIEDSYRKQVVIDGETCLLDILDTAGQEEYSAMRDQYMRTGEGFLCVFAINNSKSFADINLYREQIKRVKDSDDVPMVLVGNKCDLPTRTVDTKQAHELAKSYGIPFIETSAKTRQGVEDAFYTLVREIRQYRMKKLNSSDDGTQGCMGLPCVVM
Quantity: IC50 (µM)
Express it in µM; write the number only.

Measured on SOS1 catalytic domain (SOS-CAT) with NRAS (Homo sapiens), `CC(=O)[C@]1(O)Cc2c(O)c3c(c(O)c2[C@@H](O[C@H]2C[C@H](N)[C@H](O)[C@H](C)O2)C1)C(=O)c1ccccc1C3=O` has a documented IC50 of 7.91
